Data origin, for the record: patent US11866408B2

assay: Single intravenous dose pharmacokinetics study in rats (1 mg/kg IV; plasma levels of prodrug and of DMT or 5-MeO-DMT by LC-MS/MS); conditions: male, Sprague-Dawley, rat, plasma, iv, 1 mg/kg, AUC0-t (ng.hr/mL), IV 1 mg/kg, analyte = dosed compound
quantity_name: log10(AUC(0-t)) (log10 of the value in ng·h/mL)

molecule	quantity_name	value_observed
CC(C)OP(=O)(OC(C)C)n1cc(CCN(C)C)c2ccccc21 [Diisopropylphosphonate DMT Prodrug]	log10(AUC(0-t))	2.48
COc1ccc2c(c1)c(CCN(C)C)cn2P(=O)(OC(C)C)OC(C)C [Diisopropylphosphonate 5-MeO-DMT Prodrug]	log10(AUC(0-t))	2.02
CCOC(=O)n1cc(CCN(C)C)c2ccccc21 [Compound 20]	log10(AUC(0-t))	2.45
CN(C)CCc1c[nH]c2ccccc12 [DMT, N,N-dimethyltryptamine]	log10(AUC(0-t))	2.33
CCOC(=O)n1cc(CCN(C)C)c2cc(OC)ccc21 [Compound 19]	log10(AUC(0-t))	3.62
COc1ccc2[nH]cc(CCN(C)C)c2c1 [Compound 5-MeO-DMT, 5-methoxy-N,N-dimethyltryptamine, reference compound]	log10(AUC(0-t))	3.03

* * *

test: Single oral dose pharmacokinetics study in rats (10 mg/kg PO; plasma levels of prodrug and of metabolite DMT or 5-MeO-DMT by LC-MS/MS); settings: male, Sprague-Dawley, rat, plasma, po, 10 mg/kg, AUC0-t (nM.hr), PO 10 mg/kg, analyte = dosed compound
quantity_name: AUC(0-t)

compound	value_observed
CCOC(=O)n1cc(CCN(C)C)c2cc(OC)ccc21	0.237 µM·h
CN(C)CCc1c[nH]c2ccccc12	0.314 µM·h
CCOC(=O)n1cc(CCN(C)C)c2ccccc21	0.0184 µM·h
CC(C)OP(=O)(OC(C)C)n1cc(CCN(C)C)c2ccccc21 [Diisopropylphosphonate DMT Prodrug]	1.83 µM·h
COc1ccc2c(c1)c(CCN(C)C)cn2P(=O)(OC(C)C)OC(C)C [Diisopropylphosphonate 5-MeO-DMT Prodrug]	0.921 µM·h

* * *

test: Single oral dose pharmacokinetics study in rats (10 mg/kg PO; plasma levels of prodrug and of metabolite DMT or 5-MeO-DMT by LC-MS/MS); conditions: male, Sprague-Dawley, rat, plasma, po, 10 mg/kg, AUC0-t (nM.hr), PO 10 mg/kg Plasma (t= 0 to Ihr)

structure_string	AUC(0-t)
CN(C)CCc1c[nH]c2ccccc12	0.0239 µM·h

* * *

This listing pairs compounds with measured AUC(0-inf).
test: Single intravenous dose pharmacokinetics study in rats (1 mg/kg IV; plasma levels of prodrug and of DMT or 5-MeO-DMT by LC-MS/MS); details: male, Sprague-Dawley, rat, plasma, iv, 1 mg/kg, AUCinf (ng.hr/mL), IV 1 mg/kg, analyte = dosed compound

compound	units	AUC(0-inf)
COc1ccc2[nH]cc(CCN(C)C)c2c1 [Compound 5-MeO-DMT, 5-methoxy-N,N-dimethyltryptamine, reference compound]	ng·h/mL	1080
CN(C)CCc1c[nH]c2ccccc12	ng·h/mL	216
COc1ccc2c(c1)c(CCN(C)C)cn2P(=O)(OC(C)C)OC(C)C [Diisopropylphosphonate 5-MeO-DMT Prodrug]	ng·h/mL	113
CC(C)OP(=O)(OC(C)C)n1cc(CCN(C)C)c2ccccc21 [Diisopropylphosphonate DMT Prodrug]	ng·h/mL	311
CCOC(=O)n1cc(CCN(C)C)c2ccccc21	ng·h/mL	282

* * *

experiment: Single oral dose pharmacokinetics study in rats (10 mg/kg PO; plasma levels of prodrug and of metabolite DMT or 5-MeO-DMT by LC-MS/MS); conditions: male, Sprague-Dawley, rat, plasma, po, 10 mg/kg, AUC0-t (nM.hr), PO 10 mg/kg Plasma [Tlast = 4 h], analyte = dosed prodrug

compound	AUC(0-t) (µM·h)
CC(C)OP(=O)(OC(C)C)n1cc(CCN(C)C)c2ccccc21 [Diisopropylphosphonate DMT Prodrug]	1.39

* * *

assay: Single intravenous dose pharmacokinetics study in rats (1 mg/kg IV; plasma levels of prodrug and of DMT or 5-MeO-DMT by LC-MS/MS); details: male, Sprague-Dawley, rat, plasma, iv, 1 mg/kg, Vdss (L/kg), IV 1 mg/kg, analyte = dosed compound

compound	Vd [L/kg]
COc1ccc2c(c1)c(CCN(C)C)cn2P(=O)(OC(C)C)OC(C)C [Diisopropylphosphonate 5-MeO-DMT Prodrug]	12.2
CN(C)CCc1c[nH]c2ccccc12 [DMT, N,N-dimethyltryptamine]	0.774
CCOC(=O)n1cc(CCN(C)C)c2ccccc21 [Compound 20]	3.53
COc1ccc2[nH]cc(CCN(C)C)c2c1 [Compound 5-MeO-DMT, 5-methoxy-N,N-dimethyltryptamine, reference compound]	0.818
CC(C)OP(=O)(OC(C)C)n1cc(CCN(C)C)c2ccccc21 [Diisopropylphosphonate DMT Prodrug]	4.21

* * *

assay: Single intravenous dose pharmacokinetics study in rats (1 mg/kg IV; plasma levels of prodrug and of DMT or 5-MeO-DMT by LC-MS/MS); conditions: male, Sprague-Dawley, rat, plasma, iv, 1 mg/kg, AUCinf (ng.hr/mL), IV 1 mg/kg Plasma (t= 0 to Ihr)
quantity_name: AUC(0-inf) (ng·h/mL)

structure_string	quantity_name	value_observed
CN(C)CCc1c[nH]c2ccccc12	AUC(0-inf)	214

* * *

assay: Single oral dose pharmacokinetics study in rats (10 mg/kg PO; plasma levels of prodrug and of metabolite DMT or 5-MeO-DMT by LC-MS/MS); conditions: oral 10 mg/Kg, analyte = dosed prodrug, median
quantity_name: tlast (h)

compound	quantity_name	units	value_observed
CN(C)CCc1cn(C(=O)OC(C)(C)C)c2ccccc12	tlast	h	4.00
CC(=O)n1cc(CCN(C)C)c2ccccc21	tlast	h	1.00
CC(C)OC(=O)n1cc(CCN(C)C)c2ccccc21	tlast	h	4.00
COc1ccc2c(c1)c(CCN(C)C)cn2C(=O)CCCC(=O)O [5-MeO-DMT Non-Lipid Prodrug 6]	tlast	h	7.00
COc1ccc2c(c1)c(CCN(C)C)cn2C(=O)OC(C)C	tlast	h	2.50
CCCOC(=O)n1cc(CCN(C)C)c2cc(OC)ccc21	tlast	h	3.00
COc1ccc2c(c1)c(CCN(C)C)cn2C(=O)OC(C)(C)C	tlast	h	4.00
CN(C)CCc1cn(C(=O)c2ccccc2)c2ccccc12 [DMT Benzamide]	tlast	h	7.00
CCCOC(=O)n1cc(CCN(C)C)c2ccccc21	tlast	h	4.50
COc1ccc2c(c1)c(CCN(C)C)cn2C(C)=O	tlast	h	7.00
CC(C)COC(=O)n1cc(CCN(C)C)c2ccccc21	tlast	h	4.00
COc1ccc2c(c1)c(CCN(C)C)cn2C(=O)CCC(=O)O [5-MeO-DMT Non-Lipid Prodrug 5]	tlast	h	7.00

* * *

assay: Single intravenous dose pharmacokinetics study in rats (1 mg/kg IV; plasma levels of prodrug and of DMT or 5-MeO-DMT by LC-MS/MS); conditions: male, Sprague-Dawley, rat, plasma, iv, 1 mg/kg, AUCinf (nM.hr), IV 1 mg/kg, analyte = dosed compound

compound	AUC(0-inf)
CCOC(=O)n1cc(CCN(C)C)c2ccccc21	1.08 µM·h
COc1ccc2[nH]cc(CCN(C)C)c2c1 [Compound 5-MeO-DMT, 5-methoxy-N,N-dimethyltryptamine, reference compound]	4.95 µM·h
CN(C)CCc1c[nH]c2ccccc12	1.15 µM·h
CC(C)OP(=O)(OC(C)C)n1cc(CCN(C)C)c2ccccc21 [Diisopropylphosphonate DMT Prodrug]	0.881 µM·h
COc1ccc2c(c1)c(CCN(C)C)cn2P(=O)(OC(C)C)OC(C)C [Diisopropylphosphonate 5-MeO-DMT Prodrug]	0.295 µM·h

* * *

This listing pairs compounds with measured tlast.
assay: Single oral dose pharmacokinetics study in rats (10 mg/kg PO; plasma levels of prodrug and of metabolite DMT or 5-MeO-DMT by LC-MS/MS); details: PO 10 mg/kg, plasma, analyte = dosed compound

compound	tlast / h
CN(C)CCc1c[nH]c2ccccc12	24.0
CCOC(=O)n1cc(CCN(C)C)c2ccccc21	1.00
CCOC(=O)n1cc(CCN(C)C)c2cc(OC)ccc21	24.0
COc1ccc2c(c1)c(CCN(C)C)cn2P(=O)(OC(C)C)OC(C)C [Diisopropylphosphonate 5-MeO-DMT Prodrug]	24.1
COc1ccc2[nH]cc(CCN(C)C)c2c1 [Compound 5-MeO-DMT, 5-methoxy-N,N-dimethyltryptamine, reference compound]	2.00
CC(C)OP(=O)(OC(C)C)n1cc(CCN(C)C)c2ccccc21 [Diisopropylphosphonate DMT Prodrug]	7.00

* * *

assay: Single oral dose pharmacokinetics study in rats (10 mg/kg PO; plasma levels of prodrug and of metabolite DMT or 5-MeO-DMT by LC-MS/MS); conditions: male, Sprague-Dawley, rat, plasma, po, 10 mg/kg, C0/Cmax (ng/mL), PO 10 mg/kg Plasma (t= 0 to Ihr)
quantity_name: Cmax (ng/mL)

structure_string	units	value_observed
CN(C)CCc1c[nH]c2ccccc12	ng/mL	8.87
